Listed next: entries and their corresponding pEC50.
# System: Coxsackievirus B2
# test_description: Antiviral activity against Human coxsackievirus B2 infected African green monkey Vero76 cells assessed as reduction of virus-induced plaque reduction after 3 days by MTT assay
# Type: functional, organism-based
# settings: Enterovirus B, Vero 76, 72 h
In textbook form, pEC50 equals minus log to base ten of the concentration in mol/L.

Worked cases, pEC50 given:
Noted pEC50 for `O=C1C2=C(SCCS2)C(=O)N1CCCN1CCN(c2ccc(F)cc2)CC1` , tested on Coxsackievirus B2: 4.70

Noted pEC50 for `O=C1C2=C(SCCS2)C(=O)N1CCCCN1CCN(c2ccc(F)cc2)CC1` , tested on Coxsackievirus B2: 4.68

Noted pEC50 for `O=C1C2=C(SCCS2)C(=O)N1CCCCN1CCN(c2ccccn2)CC1` , tested on Coxsackievirus B2: 4.49

Noted pEC50 for C#C[C@@]1(O)[C@H](O)[C@@H](CO)O[C@H]1n1ccc(N)nc1=O [2'-ETHYNYL-D-CYTIDINE] , tested on Coxsackievirus B2: 4.64

Proceeding to the next compound to report its pEC50.
Noted pEC50 for `O=C1C2=C(SCCS2)C(=O)N1CCCCN1CCN(c2ccccc2)CC1` , tested on Coxsackievirus B2: 4.18
